- Test system: RXF 393 renal
- protocol details: NCI-60 one-dose screen, 48 h
- condition info: 10 µM unless noted
About 83,000 compounds went through this panel and 20% of them were active in at least one assay; those are over-represented in the sample as a whole. Activity calls are given as the source filed them. The calls were made as follows: active = growth percent below 10; inactive = the rest.
Classes used: active, inactive

Cc1nn(-c2cc(=O)[nH]c3ccccc23)c(N)c1C#N; inactive
COc1cc(/C=C/C(=O)c2cccnc2Nc2ccc(F)cc2)cc(OC)c1OC; inactive
C#CCOc1ccc2ncnc(N3CCN(C(=O)CCl)CC3)c2c1; inactive
COc1ccc2c(c1)O/C(=C\c1cccc(OCC(=O)Nc3nc4c(s3)CCCC4)c1)C2=O; active
COC(=O)c1ccc2oc(NC(=O)c3ccc(Nc4ccc([N+](=O)[O-])cc4C)c([N+](=O)[O-])c3)nc2c1; inactive
COc1ccc(-c2cc(=O)c3c(OC)c4ccoc4cc3o2)cc1; inactive
C#Cc1cccc(NC(=O)c2ccccc2NC(=O)CCl)c1; inactive
CCCCN1CCCn2c1nc1c2c(=O)n(CCC)c(=O)n1CCC; inactive
COc1cccc(-c2nc3sccn3c2-c2ccnc(NCCCNS(=O)(=O)c3cccc(Cl)c3)c2)c1; inactive
CCOC(=O)c1csc(NC(=O)COc2cccc(/C=C3\CSc4ccccc4C3=O)c2)n1; inactive
Cc1ccc(-c2onc3c(=O)[nH]nc(-c4ccccc4)c23)cc1; inactive
CCOC(=O)c1cc(C(=O)c2ccc(O)c(O)c2)n2ccc(-c3ccn4c(C(=O)c5ccc(O)c(O)c5)cc(C(=O)OCC)c4c3)cc12; inactive
c1ccc2[nH]c(-c3ccc(Nc4nc(N5CCCC5)nc5[nH]ncc45)cc3)nc2c1; active
N#CN1CC[C@H](C(=O)Nc2cc3cc(C(N)=O)ccc3cn2)C1; active
Cc1ccc(NC(=O)/C=C/c2ccccc2)c(C(N)=O)c1; active
COc1ccc(CN2c3ccccc3Sc3ccccc32)c(C(F)(F)F)c1; active
COc1ccc(-c2cc(NC(=O)Nc3ccc4ncsc4c3)no2)cc1; inactive
CCOC(=O)c1sc2nc(-c3cccc(O)c3)nc(N3CCOCC3)c2c1C; inactive
O=S(=O)(Nc1ccc(OC(F)F)cc1)c1ccc(-c2cnc(C3CC3)o2)cc1; inactive
CC(=O)Nc1ccc(S(=O)(=O)Nc2cccc(-c3nc(-c4ccc(NC(=O)c5cccnc5)cc4Cl)no3)c2)cc1; inactive

###

- Test system: A498 renal
- protocol details: NCI-60 one-dose screen, 48 h
- condition info: 10 µM unless noted
- Method: Growth inhibition of the A498 human tumor cell line is measured as a screen for anti-cancer activity. Cells are grown in 96 well plates and exposed to the test compound for 48 hours. Compounds are tested at a single concentration, which is 10^-5 M for most compounds. The reported endpoint is percent growth (GI% or GIPRCNT), where numbers from 0 - 100% represent growth inhibition, and numbers from -100% - 0 represent cell death. For example, a value of 40 represents 60% growth inhibition. […]
About 83,000 compounds went through this panel and 20% of them were active in at least one assay; those are over-represented in the sample as a whole. Active and inactive are the calls of the source. How the source made its calls: active means growth percent below 10; inactive means the rest.
Classes used: active, inactive

O=C(COc1ccc(-c2nc3cc(Cl)c(Cl)cc3[nH]2)cc1)N=Nc1c(O)[nH]c2ccccc12; active
N#CN1CCC[C@H]1C(=O)N1CCc2c(-c3[nH]nc4ncccc34)cccc21; active
COc1cccc2c1C(=O)c1c(O)c3c(c(O)c1C2=O)C[C@](O)(C(=O)CO)C[C@H]3O[C@@H]1C[C@@H](NC(=O)CCCN(C)C2(c3ccc(F)cc3)CC3CCC2C3)[C@H](O)[C@@H](C)O1 (some centres undefined); inactive
COc1ccc(-c2cc(-c3ccc(Nc4ccnc5cc(Cl)ccc45)cc3)nc(N3CCOCC3)n2)cc1; inactive
CC(C)n1c(/C=C/[C@@H](O)C[C@@H](O)CC(=O)O)c(-c2ccc(F)cc2)c2ccccc21; active
CCOC(=O)c1sc(Nc2ccc(Cl)cc2)nc1C; active
COc1cccc(-c2nn(C(C)(C)C)cc2-c2ccnc(NCCCNS(=O)(=O)c3ccc(C)cc3)c2)c1; inactive
O=C1c2ccccc2C(=O)c2c1ccc1[nH]c(-c3cccs3)nc21; inactive
COc1cccc(-c2nc(SCC(=O)Nc3ccc(C(=O)/C=C/c4ccc(OC)c(OC)c4)cc3)[nH]c(=O)c2C#N)c1; inactive
COC[C@H](C)n1c(C2CCOCC2)nc2cnc3cc(-c4c(C)noc4C)c(OC)cc3c21; active
N#Cc1cnn(-c2nc3c(Cl)cccc3s2)c1N; inactive
C=CC(COC(c1ccccc1)(c1ccccc1)c1ccccc1)N(CC)CC (centres undefined); inactive
CCN=C1C=CC(=C(c2ccc(N)cc2)c2ccc(N(CC)CC)c(C)c2)C=C1; active
COC(=O)c1ccc2oc(NC(=O)c3ccc(Nc4ccc([N+](=O)[O-])cc4C)c([N+](=O)[O-])c3)nc2c1; inactive
O=C(COc1cccc(/C=C2\COc3ccc(Cl)cc3C2=O)c1)c1ccc(Cl)cc1; inactive
N#Cc1c(N)n(CCNC(=O)c2ccccc2)c2nc3ccccc3nc12; inactive
CCN(CC)c1ccc2c(c1)Oc1nc(N)c(C#N)c(N)c1C2Sc1ccc(SC)cc1 (centres undefined); inactive
Cc1cc(C)nc(SC2=C(Nc3cc(Cl)ccc3O)C(=O)N(Cc3ccccc3)C2=O)n1; inactive
O=C1/C(=C(/c2ccccc2)N2CCOCC2)Cc2ccccc21; inactive

Data origin: PubChem BioAssay (NCI)
